# Response Units PapD 30 uM values compiled below
- targetSystem: periplasmic chaperone PapD (Escherichia coli, UniProt P15319)
- Sequence (P15319 22-239): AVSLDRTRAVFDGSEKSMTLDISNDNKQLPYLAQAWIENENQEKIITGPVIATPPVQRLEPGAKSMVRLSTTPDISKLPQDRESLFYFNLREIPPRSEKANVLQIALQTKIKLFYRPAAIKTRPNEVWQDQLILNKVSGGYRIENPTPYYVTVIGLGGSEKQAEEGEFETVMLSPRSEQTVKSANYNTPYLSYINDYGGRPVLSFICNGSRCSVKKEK
- methodSummary: Direct binding assay on BIACORE 3000, immobilized PapD
- measurementSetup: pyridinone 30 uM, 25° C., 30 μL/min, triplicate, Sensor Chip CM5

Known results for compounds:
                                   compound                    obsvalue
0  O=C(O)[C@@H]1CSc2c(-c3ccccc3)c(Cc3cccc4ccccc34)cc(=O)n21 [Ph_Pyr_COOH]  46,22397585 Response Units
1  Cc1cc(=O)n2c(c1-c1ccccc1)SC[C@H]2C(=O)O [Me_Ph_Pyr_COOH]   3,90056354 Response Units

Exercise: GET /values?readout=Response Units PapD 30 uM&item= O=C(O)[C@@H]1CSc2cc(Cc3cccc4ccccc34)cc(=O)n21 [H_Pyr_COOH]
Key: 6,760176162 Response Units

Exercise: GET /values?readout=Response Units PapD 30 uM&item= Cc1cc(=O)n2c(c1C)SC[C@H]2C(=O)O [Me_Me_Pyr_COOH]
Key: 1,676914034 Response Units

====

- targetSystem: periplasmic chaperone FimC (Escherichia coli)
- Sequence (P31697 37-241): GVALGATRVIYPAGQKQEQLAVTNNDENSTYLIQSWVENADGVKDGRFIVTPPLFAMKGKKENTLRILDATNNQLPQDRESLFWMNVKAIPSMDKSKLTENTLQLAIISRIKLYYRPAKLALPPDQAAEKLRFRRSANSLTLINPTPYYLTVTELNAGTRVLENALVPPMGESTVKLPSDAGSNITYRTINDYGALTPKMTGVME
- methodSummary: Direct binding assay on BIACORE 3000, immobilized FimC
- measurementSetup: pyridinone 30 uM, 25° C., 30 μL/min, triplicate, Sensor Chip CM5
# Response Units FimC 30 uM values compiled below

In [3]: df
Out[3]:
                             moleculesmiles                    obsvalue
0   Cc1cc(=O)n2c(c1-c1ccccc1)SC[C@H]2C(=O)O  6,753367367 Response Units
1           Cc1cc(=O)n2c(c1C)SC[C@H]2C(=O)O  6,535311642 Response Units
2  O=C(O)[C@@H]1CSc2cc(Cc3cccc4ccccc34)cc(=O)n21  11,69075072 Response Units

Exercise: GET /values?readout=Response Units FimC 30 uM&item= "O=C(O)[C@@H]1CSc2c(-c3ccccc3)c(Cc3cccc4ccccc34)cc(=O)n21"
Key: 60,71350348 Response Units
